molecular target: CDK1 (Homo sapiens); construct: purchased BPS Bioscience 79597; test: CDK1 in vitro kinase activity, single concentration 1 μM; assay type: biochemical; conditions: single concentration 1 μM
Sequence (P06493 whole entry): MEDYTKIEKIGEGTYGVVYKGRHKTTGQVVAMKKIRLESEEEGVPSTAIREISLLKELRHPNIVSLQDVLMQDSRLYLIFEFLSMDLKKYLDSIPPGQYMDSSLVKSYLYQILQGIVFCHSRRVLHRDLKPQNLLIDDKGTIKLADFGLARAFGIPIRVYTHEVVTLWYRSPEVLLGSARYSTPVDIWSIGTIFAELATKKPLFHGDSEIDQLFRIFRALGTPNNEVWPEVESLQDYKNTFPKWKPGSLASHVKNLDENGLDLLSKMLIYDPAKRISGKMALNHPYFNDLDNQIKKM
Sequence (P14635 whole entry partner): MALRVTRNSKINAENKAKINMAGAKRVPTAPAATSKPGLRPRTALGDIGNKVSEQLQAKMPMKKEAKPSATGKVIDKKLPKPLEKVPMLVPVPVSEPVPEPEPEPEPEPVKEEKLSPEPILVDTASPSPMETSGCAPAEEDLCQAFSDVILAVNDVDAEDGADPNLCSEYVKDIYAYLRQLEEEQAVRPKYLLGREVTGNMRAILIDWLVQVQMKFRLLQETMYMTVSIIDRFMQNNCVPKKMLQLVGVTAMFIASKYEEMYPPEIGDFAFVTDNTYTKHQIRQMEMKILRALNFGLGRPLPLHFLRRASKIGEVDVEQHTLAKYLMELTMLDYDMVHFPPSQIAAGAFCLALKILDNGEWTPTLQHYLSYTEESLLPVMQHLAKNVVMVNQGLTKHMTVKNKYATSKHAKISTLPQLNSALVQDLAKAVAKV
Attribute Measured: inhibition at 1 µM (%)

Reference set (3 entries):
Problem: // query inhibition at 1 µM value for entry O=C(Cc1cnccn1)Nc1ncc(SCc2cccnc2)s1 [UOM-005482]
Result: 34

Problem: Query (molecule): [N-]=[N+]=Nc1ccc(CC(=O)Nc2ncc(SCc3cccnc3)s2)cc1 [UOM-005062] ; field requested: inhibition at 1 µM
Result: 63

Problem: I have this molecule here, O=C(Cc1ccc2ccccc2c1)Nc1ncc(SCc2cccnc2)s1 [UOM-005428] , and I need its recorded inhibition at 1 µM.
Result: 70

1 = O=C(Cc1coc2cc3c(cc12)CCC3)Nc1ncc(SCc2cccnc2)s1 [UOM-005479]
2 = CN(C)c1ccc(CC(=O)Nc2ncc(SCc3cccnc3)s2)cc1 [S656]
Problem: Between 1 and 2 , whose measured inhibition at 1 µM reads higher? Please respond with the label that marks your chosen entry.
Result: 2
(2: 70%, 1: 37%)

----------
test system: OCI-AML5 cells expressing shRNAs targeting CDK1, 2, 4, 7, 9, cyclin K; assay: Dose response in OCI-AML5 expressing shRNAs targeting CDK1, 2, 4, 7, 9, cyclin K or control; type: cell-based, H. sapiens; conditions: Homo sapiens, OCI-AML-5, 96 h, OCI-AML5, 4 days; read-out: IC50, sh CDK9
Attribute Measured: pIC50
Remember, pIC50 is on a log scale: it is -log10 of the molar concentration.

Problem: Can you look up pIC50 on OCI-AML5 cells expressing shRNAs targeting CDK1, 2, 4, 7, 9, cyclin K for CN(C)c1ccc(CC(=O)Nc2ncc(SCc3cccnc3)s2)cc1 ?
Result: 6.26

----------
tested on: OCI-AML5 cells expressing shRNAs targeting CDK1, 2, 4, 7, 9, cyclin K; assay: Dose response in OCI-AML5 expressing shRNAs targeting CDK1, 2, 4, 7, 9, cyclin K or control; assay type: cell-based, H. sapiens; conditions: Homo sapiens, OCI-AML-5, OCI-AML5 expressing shRNA CDK4; read-out: IC50 shRNA CDK4
Attribute Measured: IC50 (nM)

Example cases with answers are listed next.
Problem: Entry O=C(Cc1cccnc1)Nc1ncc(SCc2cccnc2)s1 has what IC50?
Result: 2280

Problem: Name the reported IC50 value associated with the molecule O=C(Cc1ccc(Cl)cc1)Nc1ncc(SCc2cccnc2)s1
Result: 3430

Problem: Can you share its IC50? I mean this molecule: O=C(Cc1coc2cc3c(cc12)CCC3)Nc1ncc(SCc2cccnc2)s1
Result: 1920

I = O=C(Cc1ccc(Br)cc1)Nc1ncc(SCc2cccnc2)s1
II = O=C(Cc1ccc(N2CCCC2)cc1)Nc1ncc(SCc2cccnc2)s1
Problem: // which entry reports the smaller IC50, I or II ? Please indicate the selected item by its label.
Result: II

A = CN(C)c1ccc(CC(=O)Nc2ncc(SCc3cccnc3)s2)cc1
B = O=C(Cc1ccc(-c2ccccn2)cc1)Nc1ncc(SCc2cccnc2)s1
Problem: Lower IC50: A or B ? Kindly state the label of the option you pick.
Result: B

a = O=C(Nc1ncc(SCc2cccnc2)s1)C1CCNCC1
b = O=C(Cc1ccc(N2CCCCC2)cc1)Nc1ncc(SCc2cccnc2)s1
Problem: I'm curious, which of these has a smaller IC50 number: a or b ? // respond with label for picked entry
Result: b

A = Cl.Cl.O=C(CC1CCNC1)Nc1ncc(SCc2cccnc2)s1 (centres unmarked)
B = O=C(Cc1ccc(I)cc1)Nc1ncc(SCc2cccnc2)s1
Problem: Would you let me know which has the greater IC50 value, A or B ? Your answer should be the label attached to the chosen record.
Result: A
(A: 4450 nM, B: 1110 nM)

I = C=C(C(=O)Nc1ncc(SCc2cccnc2)s1)c1ccc2c(c1)[nH]c1ccc(Cl)cc12
II = O=C(Cc1ccc2ccccc2c1)Nc1ncc(SCc2cccnc2)s1
III = O=C(Cc1ccccn1)Nc1ncc(SCc2cccnc2)s1
Problem: Kindly order the items shown according to IC50, from the highest value down. Please respond with the labels ordered as the question requires.
Result: III, I, II

a = Cc1nc(CC(=O)Nc2ncc(SCc3cccnc3)s2)c(C)s1
b = CC(=O)Nc1ccc(CC(=O)Nc2ncc(SCc3cccnc3)s2)cc1
Problem: Please indicate which has the smaller reported IC50: a , or b . Indicate which entry you chose by stating its label.
Result: b

----------
test system: OCI-AML5 cells expressing shRNAs targeting CDK1, 2, 4, 7, 9, cyclin K; assay: Dose response in OCI-AML5 expressing shRNAs targeting CDK1, 2, 4, 7, 9, cyclin K or control; format: cell-based, H. sapiens; settings: Homo sapiens, OCI-AML-5, OCI-AML5 expressing shRNA CDK4; read-out: IC50 shRNA CDK4
Attribute Measured: IC50 (nM)

Below, 3 compounds whose answers are already recorded.
Problem: Suppose we examine the compound [N-]=[N+]=Nc1ccc(CC(=O)Nc2ncc(SCc3cccnc3)s2)cc1 ; what IC50 value has been reported?
Result: 2620

Problem: Which IC50 value belongs to O=C(Cc1ccc(NC(=O)c2ccncc2)cc1)Nc1ncc(SCc2cccnc2)s1 ?
Result: 626

Problem: # get_value(readout='IC50', item= COc1ccc(CC(=O)Nc2ncc(SCc3cccnc3)s2)cc1 )
Result: 3380

P = CC(=O)N1CCN(c2ccc(CC(=O)Nc3ncc(SCc4cccnc4)s3)cc2)CC1
Q = Cn1cc(CC(=O)Nc2ncc(SCc3cccnc3)s2)c2ccccc21
R = CSc1ccc(CC(=O)Nc2ncc(SCc3cccnc3)s2)cc1
Problem: Give the ascending ranking of the items by reported IC50. List the labels, following the order given in the request.
Result: R, P, Q

----------
assay: Kinetic solubility measurement (HPLC-UV); type: physicochemical; settings: aqueous buffer, kinetic from dmso stock, αMEM media, nominal 200 μM, room temperature, triplicate
Attribute Measured: solubility kinetic at 24 h (µM)
Answer with a number only, understood to be in µM.

Problem: Recorded solubility kinetic at 24 h of CN(C)c1ccc(CC(=O)Nc2ncc(SCc3cccnc3)s2)cc1 , please.
Result: 23

----------
Listed here are compounds together with their documented pIC50.
tested on: primary AML specimens; assay: Dose-response assays in primary AML specimens (6 days, CellTiterGlo); format: cell-based, human; conditions: Homo sapiens, 144 h, primary AML specimen 05H149; 6 days; read-out: IC50
pIC50 here is simply -log10 of the concentration when that concentration is written in mol/L.

Problem: Looking for the measured pIC50 of Cn1cc(-n2cnc3c(NCc4nc5cc(Cl)c(Cl)cc5[nH]4)nc(N4CCOCC4)nc32)cn1 , can you help?
Result: 7.34

Problem: If you can, please state the reported pIC50 value of CN(C)c1ccc(CC(=O)Nc2ncc(SCc3cccnc3)s2)cc1 .
Result: 5.86

Problem: I have this compound here, CC(C)(C)c1cnc(CSc2cnc(NC(=O)C3CCNCC3)s2)o1 , and I need its recorded pIC50.
Result: 6.26

***
Problem: Please report the recorded pIC50 for CN(C)C/C=C/C(=O)Nc1ccc(C(=O)N2CCC[C@@H](Nc3ncc(Cl)c(-c4c[nH]c5ccccc45)n3)C2)cc1 .
Result: 6.39

----------
test system: OCI-AML5 cells expressing shRNAs targeting CDK1, 2, 4, 7, 9, cyclin K; assay: Dose response in OCI-AML5 expressing shRNAs targeting CDK1, 2, 4, 7, 9, cyclin K or control; assay type: cell-based, H. sapiens; settings: Homo sapiens, OCI-AML-5, 96 h, read-out: IC50, sh CDK4, OCI-AML5, 4 days
Attribute Measured: IC50 (nM)
API: value field is a number in nM; no unit string.

Problem: For OCI-AML5 cells expressing shRNAs targeting CDK1, 2, 4, 7, 9, cyclin K, provide IC50 of Cn1cc(-n2cnc3c(NCc4nc5cc(Cl)c(Cl)cc5[nH]4)nc(N4CCOCC4)nc32)cn1 please.
Result: 17.4

----------
tested on: cyclin KeGFP; experiment: Cyclin KeGFP reporter system (eGFP/mCherry MFI by flow cytometry);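 note: 10 μM compound for 3 h relative to DMSO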; format: cell-based, H. sapiens; conditions: cyclin K-eGFP reporter
Attribute Measured: % degradation cyclin K-eGFP (%)
Please reply with the bare figure in % and do not write the unit itself.

Use these answered entries as a reference point.
Problem: Requested field: % degradation cyclin K-eGFP. Item: CN(C)c1ccc(CC(=O)Nc2nccs2)cc1 [UOM-005597]
Result: 4

Problem: Returns the measured % degradation cyclin K-eGFP for the input compound. Input: CN(C)c1ccc(CC(=O)Nc2nnc(SCc3cccnc3)s2)cc1 [UOM-005628]
Result: 0

Problem: What % degradation cyclin K-eGFP value was documented for this compound, O=C(Cc1ccccn1)Nc1ncc(SCc2cccnc2)s1 [UOM-005566] ?
Result: 4

Problem: So what's the measured % degradation cyclin K-eGFP for this one? O=C(CC1CCCC1)Nc1ncc(SCc2cccnc2)s1 [UOM-005225]
Result: 2

Problem: Entry COc1ccc2cc([C@H](C)C(=O)Nc3ncc(SCc4cccnc4)s3)ccc2c1 [UOM-005431] : reported % degradation cyclin K-eGFP = ?
Result: 78

Continuing:
Problem: # query: % degradation cyclin K-eGFP of entry CC(C)(C)OC(=O)N1CCC(CC(=O)Nc2ncc(SCc3cccnc3)s2)C1 (stereo not drawn) [UOM-005226]
Result: 2

Problem: Which % degradation cyclin K-eGFP value belongs to CC[C@H](CO)Nc1nc(NCc2ccc(-c3ccccn3)cc2)c2ncn(C(C)C)c2n1 [CR8] ?
Result: 86

Problem: Name the recorded % degradation cyclin K-eGFP for Cc1nnc(NC(=O)Cc2ccc(N(C)C)cc2)s1 [UOM-005596] .
Result: 0

Problem: Any idea what its % degradation cyclin K-eGFP is? The compound is CC(C)(C)OC(=O)N1CCC(C(=O)Nc2ncc(SCc3cccnc3)s2)CC1 [UOM-005205]
Result: 32

Problem: Which value of % degradation cyclin K-eGFP has been reported for CC(=O)Nc1ncc(SCc2cccnc2)s1 [UOM-005188] in the records?
Result: 6

Problem: Which % degradation cyclin K-eGFP is listed for O=C(Cc1ccc(Br)cc1)Nc1ncc(SCc2cccnc2)s1 [UOM-005199] ?
Result: 64

Problem: Can you look up the measured % degradation cyclin K-eGFP of O=C(Cc1cnccn1)Nc1ncc(SCc2cccnc2)s1 [UOM-005482] for me?
Result: 0

Problem: What value of measured % degradation cyclin K-eGFP is listed for CN(C)c1ccc(CC(=O)Nc2ncc(SCc3cccnc3)s2)cc1 [S656] ?
Result: 75

Problem: Reported % degradation cyclin K-eGFP for Cc1ccc(CC(=O)Nc2ncc(SCc3cccnc3)s2)cc1 [UOM-005202] : what is it?
Result: 28
